testName: in vivo
Set-up: species or system BALB/c nu/nu female mice
recordedConditions: female, BALB/c nu/nu, mouse, iv, 40 pmol, total radioactivity, Carcass uptake
assayMetric: tissue uptake dose at 24 h (%ID)
Numbers only, in %ID.

Which tissue uptake dose at 24 h is reported for this compound? CCNC(=O)[C@H](CC(C)C)NC(=O)[C@H](Cc1c[nH]cn1)NC(=O)CN(C)C(=O)[C@@H](NC(=O)[C@H](C)NC(=O)[C@H](Cc1c[nH]c2ccccc12)NC(=O)[C@H](CCC(N)=O)NC(=O)[C@@H](Cc1ccccc1)NC(=O)COCC(=O)Nc1ccc(CNC(=O)CCC(C(=O)O)N2CCN(CC(=O)O)CCN(CC(=O)O)CCN(CC(=O)O)CC2)cc1)C(C)C (stereo partly shown) [[^111In]In-AU-SAR-M1, metal not drawn]
0.48
